biological target: Peroxisome proliferator-activated receptor alpha (Homo sapiens, UniProt Q07869); experiment: Partial agonist activity at Gal4-fused PPARalpha LBD (unknown origin) expressed in HEK293T cells after 14 to 16 hrs by dual-Glo luciferase assay
Sequence (Q07869 whole entry, the tested form may be a part): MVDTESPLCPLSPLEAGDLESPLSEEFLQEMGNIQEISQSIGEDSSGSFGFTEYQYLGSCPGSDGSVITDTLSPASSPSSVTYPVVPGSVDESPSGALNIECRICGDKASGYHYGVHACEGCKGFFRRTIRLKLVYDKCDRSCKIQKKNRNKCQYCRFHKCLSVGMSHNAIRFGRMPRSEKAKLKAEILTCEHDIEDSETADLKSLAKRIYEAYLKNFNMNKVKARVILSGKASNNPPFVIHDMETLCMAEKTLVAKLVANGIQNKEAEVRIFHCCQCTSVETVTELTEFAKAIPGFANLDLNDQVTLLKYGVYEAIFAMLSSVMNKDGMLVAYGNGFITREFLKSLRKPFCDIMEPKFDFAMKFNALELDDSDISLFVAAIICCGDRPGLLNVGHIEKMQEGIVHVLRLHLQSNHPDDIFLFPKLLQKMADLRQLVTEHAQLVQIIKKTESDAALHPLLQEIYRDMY
measure name: EC50 (nM)

Answered cases to consult:
In [3]: df
Out[3]:
                                   compound  measure_name  units  meas_value
0  CCCCCCC(Sc1nc2ccc(NS(=O)(=O)c3ccc(Cl)cc3)cc2s1)C(=O)O (stereo not given)          EC50     nM         700
1  CCCCCCC(Sc1nc2ccc(NC(=O)c3ccccc3)cc2s1)C(=O)O (stereo not given)          EC50     nM         770
2  CCCCCCC(Sc1nc2ccc(NCc3ccccc3)cc2s1)C(=O)O (stereo not given)          EC50     nM        1000

(a) CCCCCCC(Sc1nc2ccc(NCc3ccc(Cl)cc3)cc2s1)C(=O)O (stereo not given)
(b) CCCCCCC(Sc1nc2ccc(NS(=O)(=O)c3ccc(C(C)(C)C)cc3)cc2s1)C(=O)O (stereo not given)
Ask | Higher EC50 between a and b ? Returns: label corresponding to the selected item.
Reply | a
